From various publications: IC50 for Coagulation factor XI (Homo sapiens).
hey, just use yes (1) if measured IC50 is less than 600 nM, otherwise no (0)

INSERT INTO measurements (compound, label_class) VALUES
  ('COC(=O)c1ccc(NC(=O)Cn2cc(C(=N)N)c3cccc(/C=C/C(=O)N4CCc5cc(O)c(O)cc5C4)c32)cc1', 'no (0)'),
  ('CCC(c1ccc(F)cc1)n1cc(C(=O)N2CCC[C@@]3(C2)OC(=O)Nc2ccc(Cl)c(F)c23)cn1 (single isomer, unassigned)', 'yes (1)'),
  ('COc1cn(C(Cc2ccccn2)C(=O)Nc2ccc(C(=O)O)s2)c(=O)cc1-c1cc(Cl)ccc1C#N (racemic)', 'yes (1)'),
  ('Cc1ncc(-c2c(C(F)F)ccc(Cl)c2F)nc1C(=O)Nc1cnn(C(C)c2cnc(N3C[C@H]4C[C@H]4C3=O)c(Cl)c2)c1 (stereo partly drawn)', 'yes (1)'),
  ('CC[C@@H](NC(=O)N1C(=O)[C@H](Cc2ccnc(N)c2)[C@H]1C(=O)N(C)c1nccn1C)c1ccccc1', 'yes (1)'),
  ('O=C(O)c1ccc(NC(=O)C(CC2CC2C(F)(F)F)c2ccc(-c3c(C(F)F)ccc(Cl)c3F)c[n+]2[O-])cc1 (single isomer, unassigned)', 'yes (1)');

---

From various publications: IC50 for Coagulation factor XI (Homo sapiens, UniProt P03951).
Measurement Kind: IC50

INSERT INTO measurements (compound, measurement_kind, reading) VALUES
  ('CC(c1cnc(N2C[C@H]3C[C@H]3C2=O)c(F)c1)n1cc(NC(=O)c2nc(-c3c(C(F)F)ccc(Cl)c3F)cnc2CO)cn1 (single isomer, unassigned)', 'IC50', '120 nM'),
  ('NC(=O)c1ccc(NC(=O)[C@H](C[C@@H]2CCCCO2)n2cc3c(cc2=O)-c2cc(Cl)ccc2C[C@@H](C(F)(F)F)OC3)cc1F (single isomer, unassigned)', 'IC50', '4.2 nM'),
  ('CC(c1cnc(N2CC[C@H]2CN2CC[C@@H](O)C2)nc1)n1cc(NC(=O)c2cncc(-c3c(C(F)F)ccc(Cl)c3F)n2)cn1 (stereo partly shown)', 'IC50', '4850 nM'),
  ('CN(C(=O)[C@@H]1[C@@H](Cc2ccnc(N)c2)C(=O)N1C(=O)NC(C1CCCCC1)C(F)(F)F)c1nccn1C (stereo in doubt)', 'IC50', '< 10 nM'),
  ('COCCn1ncc(C(=O)N2CCC[C@@]3(C2)OC(=O)Nc2ccc(Cl)c(F)c23)c1N', 'IC50', '425 nM'),
  ('CC1Cc2ccc(Cl)cc2-c2cc(=O)n(C(C[C@@H]3COCCO3)C(=O)Nc3ccc(C(N)=O)cc3)cc2CO1 (mixture of isomers)', 'IC50', '4.5 nM'),
  ('Cc1ncc(-c2c(C(F)F)ccc(Cl)c2F)nc1C(=O)Nc1cnn(C(C)c2ncc(N3C[C@H]4C[C@H]4C3=O)c(C)c2F)c1 (single isomer, unassigned)', 'IC50', '> 10000 nM'),
  ('COc1cccnc1-n1ncc(C(=O)N2CCC[C@@]3(C2)OC(=O)Nc2ccc(Cl)c(F)c23)c1N', 'IC50', '1690 nM'),
  ('COc1cn(C(CC2COCCO2)C(=O)Nc2ccc(C(=O)O)cc2)c(=O)cc1-c1cc(Cl)ccc1OCCF (stereo not shown)', 'IC50', '3 nM'),
  ('Nc1c(C(=O)N2CCC[C@@]3(C2)OC(=O)Nc2ccc(Cl)c(F)c23)cnn1CC1(F)CC1', 'IC50', '705 nM'),
  ('CCOC(=O)[C@@H]1[C@@H](Cc2ccnc(NC(=O)[C@H](C)N)c2)C(=O)N1C(=O)N[C@H](C)c1ccc2c(c1)OC(F)(F)O2', 'IC50', '100 to 1000 nM'),
  ('Cc1nc(Cn2cc(NC(=O)c3nc(-c4c(C(F)F)ccc(Cl)c4F)cnc3C)cn2)ccc1N1C[C@H]2C[C@H]2C1=O', 'IC50', '> 10000 nM'),
  ('COc1cn(C(CCOC(C)(C)C)C(=O)Nc2ccc(C(=O)O)s2)c(=O)cc1-c1cc(Cl)ccc1OCC(F)(F)F (racemic)', 'IC50', '2.5 nM'),
  ('CC[C@@H](NC(=O)N1C(=O)[C@H](Cc2cc(C)nc(NC)c2)[C@H]1C(=O)N(C)c1cnn(C)c1)c1ccccc1', 'IC50', '10 to 100 nM'),
  ('O=C(O)c1ccc(NC(=O)[C@@H](Cc2ccccc2)c2ccc(-c3c(F)ccc(Cl)c3F)c[n+]2[O-])cc1', 'IC50', '825 nM'),
  ('N=C(N)c1cn(CC(=O)Nc2cccnc2)c2c(/C=C/C(N)=O)cccc12', 'IC50', '1770 nM'),
  ('CC[C@@H](NC(=O)N1C(=O)[C@H](Cc2ccnc(N)c2)[C@H]1C(=O)N(C)C1=NC(=O)CN1C)c1ccccc1', 'IC50', '10 to 100 nM'),
  ('CC[C@@H](NC(=O)N1C(=O)[C@H](Cc2ccnc(N)c2)[C@H]1C(=O)N(C)c1nccn1C)c1ccc(Cl)cc1', 'IC50', '< 10 nM'),
  ('CC[C@@H](NC(=O)N1C(=O)[C@H](Cc2ccnc(N)c2)[C@H]1C(=O)N(C)c1ccncc1)c1cc(F)ccc1F', 'IC50', '< 10 nM'),
  ('CC[C@@H](C(=O)Nc1ccc(C(N)=O)cc1)n1cc2c(cc1=O)-c1c(ccc(Cl)c1Cl)C[C@@H](C(F)(F)F)OC2 (single isomer, unassigned)', 'IC50', '64 nM'),
  ('Nc1c(C(=O)N2CCC[C@@]3(C2)OC(=O)Nc2ccc(Cl)c(F)c23)cnn1CC1CCCCC1', 'IC50', '140 nM'),
  ('Cc1nc(N2C[C@H]3C[C@H]3C2=O)cnc1C(C)n1cc(NC(=O)c2cncc(-c3c(C(F)F)ccc(Cl)c3F)n2)cn1 (single isomer, unassigned)', 'IC50', '6630 nM'),
  ('CC[C@@H](NC(=O)N1C(=O)[C@H](Cc2cc(N)ncc2F)[C@H]1C(=O)N(C)c1ccncc1)c1cccc(Cl)c1', 'IC50', '100 to 1000 nM'),
  ('COc1cccc(-c2cc(N)n(CC(=O)N3CC[C@@]4(C3)OC(=O)Nc3ccc(Cl)c(F)c34)n2)c1', 'IC50', '679 nM'),
  ('CC[C@H](c1cc(C)c2nc[nH]c2c1)c1n[nH]c(C(=O)N2CCC[C@@]3(C2)OC(=O)Nc2ccc(Cl)c(F)c23)n1', 'IC50', '1220 nM');
